- Tested on: HCC-78
- Test: relative viability (nuclei count vs DMSO), 5 days (fraction); higher = more cells survive
- Condition Summary: first compound 0.001 µM
relative viability vs 0.4: less than gives 1.0; not less than gives 0.0.

1) Cc1cn(-c2cc(NC(=O)c3ccc(C)c(Nc4nccc(-c5cccnc5)n4)c3)cc(C(F)(F)F)c2)cn1 [Nilotinib] + C[C@@H](Oc1cc(-c2cnn(C3CCNCC3)c2)cnc1N)c1c(Cl)ccc(F)c1Cl [Crizotinib] (partner 1 µM)	1.0
2) Cc1cn(-c2cc(NC(=O)c3ccc(C)c(Nc4nccc(-c5cccnc5)n4)c3)cc(C(F)(F)F)c2)cn1 [Nilotinib] + CS(=O)(=O)N1CCN(Cc2cc3nc(-c4cccc5[nH]ncc45)nc(N4CCOCC4)c3s2)CC1 [Pictilisib] (partner 1 µM)	1.0
3) Cc1cn(-c2cc(NC(=O)c3ccc(C)c(Nc4nccc(-c5cccnc5)n4)c3)cc(C(F)(F)F)c2)cn1 [Nilotinib] + CC(C)C[C@H](NC(=O)[C@H](Cc1ccccc1)NC(=O)c1cnccn1)B(O)O [Bortezomib] (partner 0.002 µM)	0.0
4) Cc1cn(-c2cc(NC(=O)c3ccc(C)c(Nc4nccc(-c5cccnc5)n4)c3)cc(C(F)(F)F)c2)cn1 [Nilotinib] + COc1cccc2cc(-c3nc([C@H]4CC[C@H](C(=O)O)CC4)n4ncnc(N)c34)[nH]c12 [OSI-027] (partner 0.5 µM)	0.0
5) Cc1cn(-c2cc(NC(=O)c3ccc(C)c(Nc4nccc(-c5cccnc5)n4)c3)cc(C(F)(F)F)c2)cn1 [Nilotinib] + N=C(N)NC(=N)NCCc1ccccc1 [Phenformin] (partner 250 µM)	0.0

----------
Attribute: relative viability
- Test system: NCI-H2087
- Test: relative viability (nuclei count vs DMSO), 5 days (fraction); higher = more cells survive
- Condition Summary: first compound 0.6325 µM
Parameter: relative viability

1. CN1CCN(CCOc2cc(OC3CCOCC3)c3c(Nc4c(Cl)ccc5c4OCO5)ncnc3c2)CC1 [Saracatinib] + Cc1nc(NC(=O)N2CCC[C@H]2C(N)=O)sc1-c1ccnc(C(C)(C)C(F)(F)F)c1 [Alpelisib] (partner 2 µM)	1.41
2. Cc1csc(=NC2CCCCC2)n1/N=C/c1ccc(O)c(O)c1O [MIM1] + CC(=O)Nc1cccc(-n2c(=O)n(C3CC3)c(=O)c3c(Nc4ccc(I)cc4F)n(C)c(=O)c(C)c32)c1 [Trametinib] (partner 0.02 µM)	0.227
3. CN1CCN(CCOc2cc(OC3CCOCC3)c3c(Nc4c(Cl)ccc5c4OCO5)ncnc3c2)CC1 [Saracatinib] + CC(=O)Nc1cccc(-n2c(=O)n(C3CC3)c(=O)c3c(Nc4ccc(I)cc4F)n(C)c(=O)c(C)c32)c1 [Trametinib] (partner 0.02 µM)	0.23
4. Cc1csc(=NC2CCCCC2)n1/N=C/c1ccc(O)c(O)c1O [MIM1] + CC(=O)c1c(C)c2cnc(Nc3ccc(N4CCNCC4)cn3)nc2n(C2CCCC2)c1=O [Palbociclib] (partner 0.5 µM)	0.269

----------
Examples of compounds with documented relative viability follow.
- Tested on: NCI-H1355
- Test: relative viability (nuclei count vs DMSO), 5 days (fraction); higher = more cells survive
- Condition Summary: first compound 0.02 µM
Parameter: relative viability

1) CCNC(=O)c1noc(-c2cc(C(C)C)c(O)cc2O)c1-c1ccc(CN2CCOCC2)cc1 [Luminespib] + COc1cc2c(Oc3ccc(NC(=O)C4(C(=O)Nc5ccc(F)cc5)CC4)cc3F)ccnc2cc1OCCCN1CCOCC1 [Foretinib] (partner 0.25 µM)	0.671
2) CN1CCN(CCOc2cc(OC3CCOCC3)c3c(Nc4c(Cl)ccc5c4OCO5)ncnc3c2)CC1 [Saracatinib] + Cc1nc(Nc2ncc(C(=O)Nc3c(C)cccc3Cl)s2)cc(N2CCN(CCO)CC2)n1 [Dasatinib] (partner 0.075 µM)	0.716

----------
- System: HOP-62
- Test: relative viability (nuclei count vs DMSO), 5 days (fraction); higher = more cells survive
- Condition Summary: first compound 0.06325 µM
Label 1.0 when relative viability < 0.8; otherwise 0.0.

1. CCNC(=O)c1noc(-c2cc(C(C)C)c(O)cc2O)c1-c1ccc(CN2CCOCC2)cc1 [Luminespib] + O=C(CCCCCCC(=O)Nc1ccccc1)NO [Vorinostat] (partner 1 µM)	1.0
2. CCNC(=O)c1noc(-c2cc(C(C)C)c(O)cc2O)c1-c1ccc(CN2CCOCC2)cc1 [Luminespib] + N=C(N)NC(=N)NCCc1ccccc1 [Phenformin] (partner 250 µM)	1.0
3. CCNC(=O)c1noc(-c2cc(C(C)C)c(O)cc2O)c1-c1ccc(CN2CCOCC2)cc1 [Luminespib] + CC(C)C[C@H](NC(=O)[C@H](Cc1ccccc1)NC(=O)c1cnccn1)B(O)O [Bortezomib] (partner 0.002 µM)	0.0
4. CCNC(=O)c1noc(-c2cc(C(C)C)c(O)cc2O)c1-c1ccc(CN2CCOCC2)cc1 [Luminespib] + CS(=O)(=O)CCNCc1ccc(-c2ccc3ncnc(Nc4ccc(OCc5cccc(F)c5)c(Cl)c4)c3c2)o1 [Lapatinib] (partner 2 µM)	1.0
5. CCNC(=O)c1noc(-c2cc(C(C)C)c(O)cc2O)c1-c1ccc(CN2CCOCC2)cc1 [Luminespib] + C[C@]1(O)C[C@@H](c2nc(-c3ccc4ccc(-c5ccccc5)nc4c3)c3c(N)nccn32)C1 [Linsitinib] (partner 1 µM)	0.0
6. CCNC(=O)c1noc(-c2cc(C(C)C)c(O)cc2O)c1-c1ccc(CN2CCOCC2)cc1 [Luminespib] + NC(=O)Nc1cc(-c2cccc(F)c2)sc1C(=O)N[C@H]1CCCNC1 [AZD7762] (partner 0.2 µM)	1.0
7. CCNC(=O)c1noc(-c2cc(C(C)C)c(O)cc2O)c1-c1ccc(CN2CCOCC2)cc1 [Luminespib] + C[C@@H](Oc1cc(-c2cnn(C3CCNCC3)c2)cnc1N)c1c(Cl)ccc(F)c1Cl [Crizotinib] (partner 1 µM)	0.0
8. CCNC(=O)c1noc(-c2cc(C(C)C)c(O)cc2O)c1-c1ccc(CN2CCOCC2)cc1 [Luminespib] + CC(=O)c1c(C)c2cnc(Nc3ccc(N4CCNCC4)cn3)nc2n(C2CCCC2)c1=O [Palbociclib] (partner 0.5 µM)	1.0

----------
- Tested on: NCI-H1975
- Test: relative viability (nuclei count vs DMSO), 5 days (fraction); higher = more cells survive
- Condition Summary: first compound 0.1 µM
Parameter: relative viability

1. Cc1cn(-c2cc(NC(=O)c3ccc(C)c(Nc4nccc(-c5cccnc5)n4)c3)cc(C(F)(F)F)c2)cn1 [Nilotinib] + CC(=O)c1c(C)c2cnc(Nc3ccc(N4CCNCC4)cn3)nc2n(C2CCCC2)c1=O [Palbociclib] (partner 0.5 µM)	0.226
2. Cc1cn(-c2cc(NC(=O)c3ccc(C)c(Nc4nccc(-c5cccnc5)n4)c3)cc(C(F)(F)F)c2)cn1 [Nilotinib] + COc1cc2c(Oc3ccc(NC(=O)C4(C(=O)Nc5ccc(F)cc5)CC4)cc3F)ccnc2cc1OCCCN1CCOCC1 [Foretinib] (partner 0.25 µM)	0.957
3. Cc1cn(-c2cc(NC(=O)c3ccc(C)c(Nc4nccc(-c5cccnc5)n4)c3)cc(C(F)(F)F)c2)cn1 [Nilotinib] + CCNC(=O)c1noc(-c2cc(C(C)C)c(O)cc2O)c1-c1ccc(CN2CCOCC2)cc1 [Luminespib] (partner 0.01 µM)	0.138
4. Cc1cn(-c2cc(NC(=O)c3ccc(C)c(Nc4nccc(-c5cccnc5)n4)c3)cc(C(F)(F)F)c2)cn1 [Nilotinib] + CS(=O)(=O)N1CCN(Cc2cc3nc(-c4cccc5[nH]ncc45)nc(N4CCOCC4)c3s2)CC1 [Pictilisib] (partner 1 µM)	0.19

----------
- Tested on: A549
- Test: relative viability (nuclei count vs DMSO), 5 days (fraction); higher = more cells survive
- Condition Summary: first compound 2 µM
Parameter: relative viability

1. CN1CCN(CCOc2cc(OC3CCOCC3)c3c(Nc4c(Cl)ccc5c4OCO5)ncnc3c2)CC1 [Saracatinib] + Nc1ncn([C@H]2C[C@H](O)[C@@H](CO)O2)c(=O)n1 [Decitabine] (partner 2 µM)	0.237
2. Cc1csc(=NC2CCCCC2)n1/N=C/c1ccc(O)c(O)c1O [MIM1] + N=C(N)NC(=N)NCCc1ccccc1 [Phenformin] (partner 250 µM)	0.144
3. CN1CCN(CCOc2cc(OC3CCOCC3)c3c(Nc4c(Cl)ccc5c4OCO5)ncnc3c2)CC1 [Saracatinib] + C[C@@H](Oc1cc(-c2cnn(C3CCNCC3)c2)cnc1N)c1c(Cl)ccc(F)c1Cl [Crizotinib] (partner 1 µM)	0.549
4. CN1CCN(CCOc2cc(OC3CCOCC3)c3c(Nc4c(Cl)ccc5c4OCO5)ncnc3c2)CC1 [Saracatinib] + C[C@]1(O)C[C@@H](c2nc(-c3ccc4ccc(-c5ccccc5)nc4c3)c3c(N)nccn32)C1 [Linsitinib] (partner 1 µM)	0.357

----------
As shown below, each of these molecules has a reported relative viability value.
- System: NCI-H1651
- Test: relative viability (nuclei count vs DMSO), 5 days (fraction); higher = more cells survive
- Condition Summary: first compound 0.02 µM
Parameter: relative viability

1) CN1CCN(CCOc2cc(OC3CCOCC3)c3c(Nc4c(Cl)ccc5c4OCO5)ncnc3c2)CC1 [Saracatinib] + O=C(CCCCCCC(=O)Nc1ccccc1)NO [Vorinostat] (partner 1 µM)	0.598
2) CN1CCN(CCOc2cc(OC3CCOCC3)c3c(Nc4c(Cl)ccc5c4OCO5)ncnc3c2)CC1 [Saracatinib] + N=C(N)NC(=N)NCCc1ccccc1 [Phenformin] (partner 250 µM)	0.414
3) CN1CCN(CCOc2cc(OC3CCOCC3)c3c(Nc4c(Cl)ccc5c4OCO5)ncnc3c2)CC1 [Saracatinib] + Nc1ncn([C@H]2C[C@H](O)[C@@H](CO)O2)c(=O)n1 [Decitabine] (partner 2 µM)	0.734
4) CCNC(=O)c1noc(-c2cc(C(C)C)c(O)cc2O)c1-c1ccc(CN2CCOCC2)cc1 [Luminespib] + COc1cc2c(Oc3ccc(NC(=O)C4(C(=O)Nc5ccc(F)cc5)CC4)cc3F)ccnc2cc1OCCCN1CCOCC1 [Foretinib] (partner 0.25 µM)	0.826
5) CN1CCN(CCOc2cc(OC3CCOCC3)c3c(Nc4c(Cl)ccc5c4OCO5)ncnc3c2)CC1 [Saracatinib] + NC(=O)Nc1cc(-c2cccc(F)c2)sc1C(=O)N[C@H]1CCCNC1 [AZD7762] (partner 0.2 µM)	0.549
6) CCNC(=O)c1noc(-c2cc(C(C)C)c(O)cc2O)c1-c1ccc(CN2CCOCC2)cc1 [Luminespib] + Nc1nc2[nH]cc(CCc3ccc(C(=O)N[C@@H](CCC(=O)O)C(=O)O)cc3)c2c(=O)[nH]1 [Pemetrexed] (partner 0.2 µM)	0.474
7) CCNC(=O)c1noc(-c2cc(C(C)C)c(O)cc2O)c1-c1ccc(CN2CCOCC2)cc1 [Luminespib] + CS(=O)(=O)N1CCN(Cc2cc3nc(-c4cccc5[nH]ncc45)nc(N4CCOCC4)c3s2)CC1 [Pictilisib] (partner 1 µM)	0.403
8) CCNC(=O)c1noc(-c2cc(C(C)C)c(O)cc2O)c1-c1ccc(CN2CCOCC2)cc1 [Luminespib] + C[C@]1(O)C[C@@H](c2nc(-c3ccc4ccc(-c5ccccc5)nc4c3)c3c(N)nccn32)C1 [Linsitinib] (partner 1 µM)	1.08
9) CN1CCN(CCOc2cc(OC3CCOCC3)c3c(Nc4c(Cl)ccc5c4OCO5)ncnc3c2)CC1 [Saracatinib] + O=C(c1cc(Cc2n[nH]c(=O)c3ccccc23)ccc1F)N1CCN(C(=O)C2CC2)CC1 [Olaparib] (partner 8 µM)	0.191
10) CN1CCN(CCOc2cc(OC3CCOCC3)c3c(Nc4c(Cl)ccc5c4OCO5)ncnc3c2)CC1 [Saracatinib] + Cc1nc(NC(=O)N2CCC[C@H]2C(N)=O)sc1-c1ccnc(C(C)(C)C(F)(F)F)c1 [Alpelisib] (partner 2 µM)	1.02
11) CCNC(=O)c1noc(-c2cc(C(C)C)c(O)cc2O)c1-c1ccc(CN2CCOCC2)cc1 [Luminespib] + C[C@@H](Oc1cc(-c2cnn(C3CCNCC3)c2)cnc1N)c1c(Cl)ccc(F)c1Cl [Crizotinib] (partner 1 µM)	0.787
12) CCNC(=O)c1noc(-c2cc(C(C)C)c(O)cc2O)c1-c1ccc(CN2CCOCC2)cc1 [Luminespib] + Cc1nc(NC(=O)N2CCC[C@H]2C(N)=O)sc1-c1ccnc(C(C)(C)C(F)(F)F)c1 [Alpelisib] (partner 2 µM)	0.881
13) CN1CCN(CCOc2cc(OC3CCOCC3)c3c(Nc4c(Cl)ccc5c4OCO5)ncnc3c2)CC1 [Saracatinib] + Nc1nc2[nH]cc(CCc3ccc(C(=O)N[C@@H](CCC(=O)O)C(=O)O)cc3)c2c(=O)[nH]1 [Pemetrexed] (partner 0.2 µM)	0.633
14) CN1CCN(CCOc2cc(OC3CCOCC3)c3c(Nc4c(Cl)ccc5c4OCO5)ncnc3c2)CC1 [Saracatinib] + CC(=O)Nc1cccc(-n2c(=O)n(C3CC3)c(=O)c3c(Nc4ccc(I)cc4F)n(C)c(=O)c(C)c32)c1 [Trametinib] (partner 0.02 µM)	0.837
15) CN1CCN(CCOc2cc(OC3CCOCC3)c3c(Nc4c(Cl)ccc5c4OCO5)ncnc3c2)CC1 [Saracatinib] + CS(=O)(=O)N1CCN(Cc2cc3nc(-c4cccc5[nH]ncc45)nc(N4CCOCC4)c3s2)CC1 [Pictilisib] (partner 1 µM)	0.507
16) CCNC(=O)c1noc(-c2cc(C(C)C)c(O)cc2O)c1-c1ccc(CN2CCOCC2)cc1 [Luminespib] + N=C(N)NC(=N)NCCc1ccccc1 [Phenformin] (partner 250 µM)	0.304
17) CN1CCN(CCOc2cc(OC3CCOCC3)c3c(Nc4c(Cl)ccc5c4OCO5)ncnc3c2)CC1 [Saracatinib] + CS(=O)(=O)CCNCc1ccc(-c2ccc3ncnc(Nc4ccc(OCc5cccc(F)c5)c(Cl)c4)c3c2)o1 [Lapatinib] (partner 2 µM)	0.92
18) CN1CCN(CCOc2cc(OC3CCOCC3)c3c(Nc4c(Cl)ccc5c4OCO5)ncnc3c2)CC1 [Saracatinib] + CCNC(=O)c1noc(-c2cc(C(C)C)c(O)cc2O)c1-c1ccc(CN2CCOCC2)cc1 [Luminespib] (partner 0.01 µM)	0.912
